- target: T1, LIN7A, O14910
- T1 sequence (O14910 103-200, limits assumed, looked up): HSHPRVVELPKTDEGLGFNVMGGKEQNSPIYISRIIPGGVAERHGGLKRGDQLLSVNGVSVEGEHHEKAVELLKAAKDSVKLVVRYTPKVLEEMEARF
- test-summary: holdup assay
- Set-up: key: below the threshold = too weak to quantify, mostly under pKd 3.1 to 4
- test-context: plain residues with an end cap or a label only (N-terminal biotin on a linker: ado-ado)
measured-attribute: pKd

Example binders with recorded pKd:
{"binder": "KRPEMTSSSV [MUC3A, MUC3B, Q02505;Q9H195]", "pKd": "below the threshold"}
{"binder": "VKRNSKETVV [MARCHF3, Q86UD3]", "pKd": "below the threshold"}
{"binder": "RFQQRMQTHV [KIRREL1, Q96J84]", "pKd": "below the threshold"}
{"binder": "QRPYRRGSEI [KCNJ18, B7U540]", "pKd": "below the threshold"}
{"binder": "EDGESWEYQI [TRPV6, Q9H1D0]", "pKd": "below the threshold"}

We now examine a further binder.
State its pKd: ARESQKVSHV [FAM110B, Q8TC76]
below the threshold
